Values compiled from patent US11299478B2.

Readings of IC50 for the listed compounds
# system.under.test: cathepsin L (Homo sapiens, UniProt P07711)
# Sequence (P07711 114-333, species assumed): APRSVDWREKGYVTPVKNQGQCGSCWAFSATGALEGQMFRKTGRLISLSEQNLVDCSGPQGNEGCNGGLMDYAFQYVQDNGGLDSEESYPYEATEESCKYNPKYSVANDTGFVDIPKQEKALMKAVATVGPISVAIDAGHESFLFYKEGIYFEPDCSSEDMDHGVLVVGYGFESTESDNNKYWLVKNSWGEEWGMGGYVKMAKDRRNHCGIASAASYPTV
# experiment.summary: Inhibitory activity assay against cathepsin L (enzyme assay)
# Format: biochemical
# assay.context: Z-Phe-Arg-AMC 2 μM, enzyme 3 nM, pH 5.5, 30 minutes

Completed entries (count: 2):
compound	IC50
N#Cc1nccc(C2(NC(=O)NCc3ccccc3C(F)(F)F)CCCC2)n1 [Example 56]	> 10000 nM
N#Cc1nccc(C2(NC(=O)Nc3cc(C(F)(F)F)ccc3CO)CCCCC2)n1 [Example 108]	2270 nM

State its IC50: CC(=O)N1CCN(c2ccc(-c3ccc(NC(=O)NC4(c5ccnc(C#N)n5)CCCCC4)cc3)cc2)CC1 [Example 155]
> 10000 nM

Supply measured IC50 of N#Cc1nccc(C2(NC(=O)Nc3cc(C(F)(F)F)cc(C(F)(F)F)c3)CCCCC2)n1 [Example 95] in your reply.
> 10000 nM

Supply recorded IC50 for Cc1ccc(NC(=O)NC2(c3ccnc(C#N)n3)CCCC2)cc1C [Example 62] here.
> 10000 nM

Please list IC50 recorded for the compound N#Cc1nccc(C2(NC(=O)OCc3cccc(Br)c3)CCCCC2)n1 [Example 12]
6910 nM

Give the reported IC50 for this compound. COC(=O)Cc1ccc(-c2ccc(NC(=O)NC3(c4ccnc(C#N)n4)CCCCC3)cc2)cc1 [Example 156]
> 10000 nM

Tell me IC50 reported for CC(=O)NCc1ccc(-c2ccc(NC(=O)NC3(c4ccnc(C#N)n4)CCCCC3)cc2)cc1 [Example 151]
> 10000 nM

Consider the compound N#Cc1nccc(C2(NC(=O)Nc3ccc(-c4ccc(N5CCOCC5)cc4)cc3)CCCCC2)n1 [Example 117] . State its measured IC50.
> 10000 nM

Provide one value: measured IC50 of N#Cc1nccc(C2(NC(=O)Nc3ccc(N4CCOCC4)cc3)CCCCC2)n1 [Example 139]
7030 nM

Give recorded IC50. CC(C)N1CCN(c2ccc(-c3ccc(NC(=O)NC4(c5ccnc(C#N)n5)CCCCC4)cc3F)cc2)CC1 [Example 166]
3440 nM

Give the reported value of IC50 for this record: N#Cc1nccc(C2(NC(=O)Nc3ccc(I)c(F)c3)CCCCC2)n1 [Example 137]
> 10000 nM

Look up and state reported IC50 for N#Cc1nccc(C2(NC(=O)OCc3cccc(C(F)(F)F)c3)CCCCC2)n1 [Example 14]
9230 nM

# return recorded IC50 for input N#Cc1nccc(C2(NC(=O)Nc3ccc(-c4ccncc4)cc3)CCCCC2)n1 [Example 119]
6790 nM

Using the record for N#Cc1nccc(C2(NC(=O)Nc3ccc(Br)cc3F)CCCCC2)n1 [Example 134] , state its measured IC50.
> 10000 nM

Identify measured IC50 corresponding to N#Cc1nccc(C2(NC(=O)Nc3ccc4nccnc4c3)CCCC2)n1 [Example 77]
> 10000 nM
